Cited source: the supplement of paper PMC10065799

- Experimental Target: MERTK (UniProt Q12866)
- Sequence (Q12866 whole entry, looked up): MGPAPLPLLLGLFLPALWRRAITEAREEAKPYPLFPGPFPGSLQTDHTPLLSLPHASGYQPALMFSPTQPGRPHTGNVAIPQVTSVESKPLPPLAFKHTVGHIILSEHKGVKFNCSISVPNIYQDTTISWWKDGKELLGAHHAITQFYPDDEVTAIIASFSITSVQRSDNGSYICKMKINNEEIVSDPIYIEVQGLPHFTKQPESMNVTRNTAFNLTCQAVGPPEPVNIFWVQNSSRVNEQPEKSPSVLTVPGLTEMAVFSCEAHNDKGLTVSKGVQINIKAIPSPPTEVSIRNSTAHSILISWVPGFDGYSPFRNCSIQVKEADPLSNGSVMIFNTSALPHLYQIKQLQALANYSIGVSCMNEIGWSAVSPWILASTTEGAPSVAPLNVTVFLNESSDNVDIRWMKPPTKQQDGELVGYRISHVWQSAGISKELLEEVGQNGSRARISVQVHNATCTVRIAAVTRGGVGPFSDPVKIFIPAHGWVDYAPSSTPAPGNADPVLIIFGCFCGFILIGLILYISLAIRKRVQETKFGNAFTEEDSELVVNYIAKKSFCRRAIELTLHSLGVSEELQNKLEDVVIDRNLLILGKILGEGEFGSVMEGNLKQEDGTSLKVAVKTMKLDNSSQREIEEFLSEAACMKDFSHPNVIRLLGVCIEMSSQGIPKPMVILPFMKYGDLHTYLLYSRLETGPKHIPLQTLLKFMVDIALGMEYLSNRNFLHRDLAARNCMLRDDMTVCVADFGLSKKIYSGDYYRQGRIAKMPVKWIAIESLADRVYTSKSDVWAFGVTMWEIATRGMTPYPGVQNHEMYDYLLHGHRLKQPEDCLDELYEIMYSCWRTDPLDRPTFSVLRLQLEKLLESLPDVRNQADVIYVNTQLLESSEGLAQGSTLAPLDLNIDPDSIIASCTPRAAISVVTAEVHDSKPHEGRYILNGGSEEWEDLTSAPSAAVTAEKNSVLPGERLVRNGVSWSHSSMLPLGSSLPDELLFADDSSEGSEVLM
- Procedure Text: phosphorylation enrichment, bacterial display (enrichment ratio); higher = better substrate or ligand; peptides without Tyr show the background;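 also: 11-residue human phosphosite peptides and single-mutation variants displayed on the E. coli surface, counted by deep sequencing, each peptide's frequency after selection divided by its frequency in the unselected input library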;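 also: frequency after pTyr selection over input frequency; kinase dosed for 20-30% of maximal phosphorylation in three min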
Would you mind labelling by phosphorylation enrichment? At or over 0.5 is 1, under is 0.

Exercise: Quick check: does TTIVSYRASQP [MKI67_Y1737_K1734I] have phosphorylation enrichment greater than or equal to 0.5?
Key: 0

Exercise: Quick check: does FDDIAYIRKNL [PIK3CA_Y1021_T1025N] have phosphorylation enrichment greater than or equal to 0.5?
Key: 0

Exercise: Quick check: does ALLVFYAATIA [SLC20A2_Y187_P184L] have phosphorylation enrichment greater than or equal to 0.5?
Key: 0

Exercise: Quick check: does DVELLYPVKEK [EPHX1_Y283] have phosphorylation enrichment greater than or equal to 0.5?
Key: 0

Exercise: Quick check: does HNVAIYEGFAL [ACTC1_Y168_P166A_YF] have phosphorylation enrichment greater than or equal to 0.5?
Key: 1

Exercise: Quick check: does EFLHKYKGFKI [SYNE1_Y6953_Q6951H_YF] have phosphorylation enrichment greater than or equal to 0.5?
Key: 0

Exercise: Quick check: does FLAVEYHKPHI [IDS_Y225_G224E] have phosphorylation enrichment greater than or equal to 0.5?
Key: 0
